Tested on: OVCAR-5 ovarian
Assay: NCI-60 one-dose screen, 48 h
Conditions: 10 µM unless noted
This is part of a sample that, as a whole, favours compounds with a hit. Of some 83,000 tested, about 20% had one in any assay. Active and inactive are the calls of the source. How the source made its calls: active means growth percent below 10; inactive means the rest.
Respond using exactly one of the listed classes: active, inactive

Example entries and their recorded answers appear below.
// param item: `CCCCN(CC)CCCCCCCCCCN1CCCc2cc(OC)ccc21` ; yields the recorded call
inactive

Any idea what this test logged for `O=C1C[C@H](Sc2nc(-c3ccc(F)cc3)cc(C(F)(F)F)n2)[C@H]2CO[C@@H]1O2` ?
inactive

Just curious, what result did `Cc1ccc(SCN2CCN(c3cccc(Cl)c3)CC2)cc1` get here?
inactive

Next:
Any idea what this test logged for `O=c1c2cccc3c(Nc4c(F)cccc4F)ccc(c32)c2nc3ccccc3n12` ?
inactive

// param item: `COc1cccc(-c2nc3sccn3c2-c2ccnc(NCCCNS(=O)(=O)c3ccc(Cl)cc3)c2)c1` ; yields the recorded call
inactive

Answer briefly: the call reported for `CNC(=S)N/N=C/CSC/C=N/NC(=S)NC` in this assay.
inactive

Please state the recorded outcome for this compound: `CNc1nc(C)c(-c2nc(Nc3cccc(S(N)(=O)=O)c3)ncc2F)s1`
active

Hi team, can someone confirm the assay call for `O=C(O)c1cccnc1Br` ?
inactive

What did this assay record as the result for N#CC1=C(N)Oc2c(ccc3ccccc23)C1c1cccs1 (configuration not stated) ?
inactive

----------
Tested on: CCRF-CEM leukemia
Test: NCI-60 one-dose screen, 48 h (100 = growth as untreated, 0 = no growth, -100 = all killed)
Settings: 10 µM unless noted
Compounds without any hit were thinned out: in the full panel of roughly 83,000, 20% have a hit. The source made the active and inactive calls. How the source made its calls: active means growth percent below 10; inactive means the rest.
Measured parameter: growth

Below are 2 compounds. Give each one its growth.
1. CCOC(=O)c1cnc2ccc(Br)cc2c1Nc1cccc(S(=O)(=O)NC)c1
2. Nc1nc2c(c3ncccc13)C(c1ccc(Cl)c(Cl)c1)Cc1ncccc1-2 (stereo not drawn)

105% (inactive)
2.45% (active)

----------
Tested on: HOP-62 NSCLC
Test: NCI-60 one-dose screen, 48 h (100 = growth as untreated, 0 = no growth, -100 = all killed)
Conditions: 10 µM unless noted
This is part of a sample that, as a whole, favours compounds with a hit. Of some 83,000 tested, about 20% had one in any assay.
Kindly state growth for each of the entries shown.
Numbers only, in %.

Illustrative cases are given below, each with its answer.
The reported value for `COc1ccc(-c2cc(NC(=O)Nc3ccc(O)cc3)no2)cc1` in terms of growth is 88.5

Quick note, growth for `O=C1c2cc3c(cc2-c2c1c1cc(Cl)c(Cl)cc1c(=O)n2C[C@H](O)CO)OCO3` landed at -54.3

What the record says about `O=C(CCCN1CCOCC1)Nc1ccc(Cn2nnc3c2C(=O)c2nnn(Cc4ccc(NC(=O)CCCN5CCOCC5)cc4)c2C3=O)cc1` : growth is 73.9

Record `O=C(Nc1cccc2[nH]c(C(F)(F)F)nc12)c1ccc(Br)cc1F` , field growth: 45.3

For every item below, please supply its growth.
1. CS(CCCCN=C=S)=NC(=O)c1c(F)c(F)c(F)c(F)c1F (stereo not drawn)
2. CC[C@H](Nc1nc(N)nc(C)c1C#N)c1nc2cccc(NCc3ccc(C(=O)NO)cc3)c2c(=O)n1-c1ccccc1
3. COc1ccc(C(=O)c2sc3nc(-c4ccccc4OC)ccc3c2N)cc1OC
4. COc1c(C2CC(=O)Nc3c2cnn3Cc2ccco2)cc2c(c1OC)OCO2 (stereo not drawn)

[109, 9.2, 95.3, 12.2]

----------
I'd appreciate it if you could supply growth values for the items below.
System: MALME-3M melanoma
Assay: NCI-60 one-dose screen, 48 h (100 = growth as untreated, 0 = no growth, -100 = all killed)
Settings: 10 µM unless noted
Protocol: Cells are grown in 96 well plates and exposed to the test compound for 48 hours. Compounds are tested at a single concentration, which is 10^-5 M for most compounds. The reported endpoint is percent growth (GI% or GIPRCNT), where numbers from 0 - 100% represent growth inhibition, and numbers from -100% - 0 represent cell death. For example, a value of 40 represents 60% growth inhibition. A value of 0 means no net growth occurred over the course of the experiment. […]
About 83,000 compounds went through this panel and 20% of them were active in at least one assay; those are over-represented in the sample as a whole. Calls of active or inactive are those of the source. The calls were made as follows: active = growth percent below 10; inactive = the rest.

Solved cases (6 shown):
Memo: `O=C1/C(=C/c2ccc(Cl)cc2Cl)CN(S(=O)(=O)c2ccccc2)C/C1=C\c1ccc(Cl)cc1Cl` , reported growth: 36.8% (inactive)

Record `Oc1ccc2c(=S)cc(-c3ccc(Br)cc3)oc2c1O` . Reported growth: 38.3% (inactive)

// growth lookup, compound = `COc1cc(OC)c(/C=C/c2cc[n+](C)c3ccccc23)c(OC)c1` , result: 5.28% (active)

// `O=C1C(Cl)=C(Cl)C(=O)c2c1nc1n2CCCC1` : growth value = 73.2% (inactive)

Measured growth, `O=[N+]([O-])c1cccc(-c2nc3sccn3c2-c2ccnc(NCCCNS(=O)(=O)c3cccc(F)c3)n2)c1` : -10.6% (active)

response.value for `O=C(CCCN1CCOCC1)Nc1ccc(Cn2nnc3c2C(=O)c2nnn(Cc4ccc(NC(=O)CCCN5CCOCC5)cc4)c2C3=O)cc1` (field: growth) = -74.3% (active)

Give growth for each listed item.
1. C=C1CC2(OC1=O)C(=O)Nc1ccccc12 (stereo not given)
2. COc1ccc(CN(c2ccc(C)cc2)C2OC(=O)c3ccccc32)cc1OC (stereo not given)

1: 12.4% (inactive); 2: 104% (inactive)

----------
Provide the reported growth of each item.
System: LOX IMVI melanoma
Experiment: NCI-60 one-dose screen, 48 h (100 = growth as untreated, 0 = no growth, -100 = all killed)
Details: 10 µM unless noted
This is part of a sample that, as a whole, favours compounds with a hit. Of some 83,000 tested, about 20% had one in any assay. Activity calls are given as the source filed them. How the source made its calls: active means growth percent below 10; inactive means the rest.

Record `Cc1ccc2c(c1)O/C(=C\c1cccc(OCC(=O)c3ccccc3)c1)C2=O` / LOX IMVI melanoma, growth recorded as 101% (inactive)

Bench note, LOX IMVI melanoma: CC1(C)OCC2OC3(C(=O)O)OC(C)(C)OC3C2O1 (stereo not given) , growth reads 84.5% (inactive)

Please supply growth for each of the following items, keeping them in order.
1. COc1cccc(/C=C\C(=O)c2ccccc2)c1
2. CCCCNC(=O)NS(=O)(=O)c1ccc(N2N=C(c3cc(C)ccc3C)CC2c2cc(OC)c(OC)c(OC)c2)cc1 (stereo not given)
3. CN(C)c1ccc(/C=C\C2=[N+](C)c3ccccc3C2(C)C)cc1
4. COc1ccc2nc3cc(Cl)ccc3c(N3CCN(c4nccc(Nc5ccccc5)n4)CC3)c2c1
5. Cc1cc(=O)oc2cc(Oc3nc(-c4ccc(Cl)cc4)cn4c(-c5ccc(Cl)cc5)cnc34)ccc12
6. CCc1ccc(C(c2ccc(CC)cc2)C(Cl)(Cl)CCl)cc1

["30.3% (inactive)", "9.68% (active)", "16.1% (inactive)", "44.3% (inactive)", "84.4% (inactive)", "93.6% (inactive)"]

Hey, quick one: what's growth for each of these?
1. COc1nc2c(cc1S(=O)(=O)c1ccccc1)CCc1c-2cnn1Cc1ccccc1
2. CCCCCCCCCCCCCCCC(=O)OCC1OC(n2cnc3c(=S)nc(N)[nH]c32)C(OC(=O)CCCCCCCCCCCCCCC)C1OC(=O)CCCCCCCCCCCCCCC (stereo not given)
3. N=c1c2ccccc2nc2n1CCCCC2
4. Nc1ccc(N2CCOCC2)cc1
5. COCCOc1ccc(-c2nc3ccc(-c4nc5ccc(N6CCN(C)CC6)cc5[nH]4)cc3[nH]2)cc1

1: 65.9% (inactive); 2: 21.7% (inactive); 3: 106% (inactive); 4: 104% (inactive); 5: -72.5% (active)

----------
System: OVCAR-3 ovarian
Experiment: NCI-60 one-dose screen, 48 h (100 = growth as untreated, 0 = no growth, -100 = all killed)
Conditions: 10 µM unless noted
The panel holds about 83,000 compounds, 20% with a hit somewhere; the sample as a whole holds those more often.
Exercise: for every item that follows, state its recorded growth.
Answers are plain numbers, in %.

See these solved cases before continuing.
Reported growth for `CCCN(CCC)CN(CCC)CCC` was 92.1

For this compound ( CCC(C)[C@@H]1NC(=O)[C@@H]2CCCN2C(=O)[C@H](Cc2ccccc2)NC(=O)[C@@H]2CCCN2C(=O)[C@H](Cc2ccccc2)NC(=O)[C@@H]2CCCN2C(=O)[C@H](Cc2ccccc2)NC1=O (some centres not stated) ), measured growth is 126

response.value for `CN1CCN(Cc2ccc(NC(=O)c3cncc(C#Cc4cnc(N)c5cccnc45)c3)cc2C(F)(F)F)CC1` (field: growth) = 34.6

Input `CCN(CC)c1ccc(/C=C/C2=[N+](C)c3ccccc3C2(C)C)cc1` . Output growth: 5.97

Recorded growth (compound `CC(=O)Oc1ccc(Nc2c3ccccc3nc3ccccc23)cc1` ): 9.24

The following compounds each have a reported value; give each one's growth.
1. COc1ccc(C/C(C)=C(\c2ccc(OCCN3CCCCCC3)cc2)c2ccc(OC(=O)C3CCCCC3)cc2)cc1
2. COc1ccc2nc3cc(Cl)ccc3c(N3CCN(c4ccnc(N5CCN(C)CC5)n4)CC3)c2c1

1. 63.5
2. -39.4
